System: KHOS-240S
Assay protocol: relative viability vs DMSO control (72 h) (fraction); higher = more viable cells
Assay conditions: 0.3704 µM
Endpoint name: relative viability

CCc1cc2c(cc1N1CCC(N3CCOCC3)CC1)C(C)(C)c1[nH]c3cc(C#N)ccc3c1C2=O [Alectinib]: 0.998
CCN1CCN(Cc2ccc(Nc3ncc(F)c(-c4cc(F)c5nc(C)n(C(C)C)c5c4)n3)nc2)CC1 [Abemaciclib]: 0.834
CC[C@H](Nc1ncnc2[nH]cnc12)c1nc2cccc(F)c2c(=O)n1-c1ccccc1 [Idelalisib]: 1.06

Ask: # input compound: COc1cc2nccc(Oc3ccc(NC(=O)Nc4cc(C)on4)c(Cl)c3)c2cc1OC [Tivozanib] ; wanted: its relative viability
Result: 1.04

Ask: Given the entry CO[C@H]1C[C@@H]2CC[C@@H](C)[C@@](O)(O2)C(=O)C(=O)N2CCCC[C@H]2C(=O)O[C@H]([C@H](C)C[C@@H]2CC[C@@H](OP(C)(C)=O)[C@H](OC)C2)CC(=O)[C@H](C)/C=C(\C)[C@@H](O)[C@@H](OC)C(=O)[C@H](C)C[C@H](C)/C=C/C=C/C=C/1C [Ridaforolimus] , report its measured relative viability.
Result: 0.851

Ask: Look at this compound and give its reported relative viability. Nc1cc(C(F)(F)F)c(-c2cc(N3CCOCC3)nc(N3CCOCC3)n2)cn1 [Buparlisib]
Result: 0.915

Ask: Which relative viability value belongs to C[C@@H](c1ccc2nccn2c1)n1nnc2ncc(-c3cnn(C)c3)nc21 [Volitinib] ?
Result: 1.08

Ask: # input compound: Cc1cc(C)c(/C=C2\C(=O)Nc3ccccc32)[nH]1 [Semaxanib] ; wanted: its relative viability
Result: 0.959

Ask: // lookup relative viability for C=CC(=O)Nc1cccc(Oc2nc(Nc3ccc(N4CCN(C)CC4)cc3)nc3ccsc23)c1 [Olmutinib]
Result: 0.997

Ask: May I ask what relative viability has been recorded for CN1CCN(c2ccc3nc(-c4c(N)c5c(F)cccc5[nH]c4=O)[nH]c3c2)CC1 [Dovitinib] ?
Result: 0.891
